- measurement.description: Half life in water at 2.6 mg/ml at 37 degC by UV-HPLC analysis
- Assay type: physicochemical
measured.attribute: half-life at 2.6 mg/ml

{"mol.smiles": "N=C(NC=O)NC(=O)N[C@@H]1O[C@H](CO)[C@@H](O)[C@H]1O", "experimental.value": "2 h"}

###

- measurement.description: Half life in mice
- experimental.context: mouse, in vivo

{"mol.smiles": "Nc1ncn([C@@H]2O[C@H](CO)[C@@H](O)[C@H]2O)c(=O)n1", "half-life": "< 6 h"}

###

- measurement.description: Half life in water at 2.6 mg/ml at 25 degC by UV-HPLC analysis
- Type: physicochemical

{"mol.smiles": "N=C(NC=O)NC(=O)N[C@@H]1O[C@H](CO)[C@@H](O)[C@H]1O", "unit.tag": "h", "half-life at 2.6 mg/ml": 9}

###

- measurement.description: Stability of the compound in water assessed as compound remaining at 2.6 mg/ml at 25 degC after 24 hrs by UV-HPLC analysis
- Assay type: physicochemical
- experimental.context: read-out: Stability

{"mol.smiles": "N=C(NC=O)NC(=O)N[C@@H]1O[C@H](CO)[C@@H](O)[C@H]1O", "unit.tag": "%", "remaining at 24 h, 2.6 mg/ml": 24}
